protocol.description: Cytotoxicity against HBV infected human HepG2(2.2.15) cells
Type: cell-based
condition.info: HBV infected HepG2(2.2.15) cells
test.readout: CC50 (µM)
Form entry: value (µM) — number only.

compound	CC50 (µM)
COC(=O)[C@]1(C)CCC[C@]2(C)[C@H]3C[C@H]4C(=C(C)C)C5O[C@@]6(O)CCC(=O)[C@H]4[C@@H]6[C@@]53CC[C@H]21	59
COC(=O)[C@]1(C)CCC[C@]2(C)[C@H]3C[C@H]4C(C(C)C)=C[C@]3(CC[C@H]21)[C@H]1[C@@H]4[C@@H](OC(=O)CCC(=O)O)CC[C@@H]1OC(=O)CCC(=O)O	21
COC(=O)[C@H]1[C@@H](C(=O)OC)C2(C(=O)OC)CC[C@@H]3[C@](C)(CCC[C@@]3(C)C(=O)OC)[C@H]2C[C@H]1C(=O)C(C)C (some centres not stated)	189

-- ask Indicate its recorded CC50; the compound in question is COC(=O)[C@]1(C)CCC[C@]2(C)[C@H]3C[C@H]4C(C(C)C)=C[C@]3(CC[C@H]21)[C@@H]1/C(=N/O)CCC2(OCCO2)[C@@H]14
-- reply 20

-- ask Tell me its CC50 given COC(=O)[C@H](C)NC(=O)[C@]1(C)CCC[C@]2(C)[C@H]3C[C@H]4C(C(C)C)=C[C@]3(CC[C@H]21)[C@@H]1C(=O)CCC(=O)[C@@H]14 as the entry.
-- reply 86

-- ask Please look at this compound and report its CC50: CC(C)C1=C[C@@]23CC[C@@H]4[C@](C)(CCC[C@@]4(C)C(=O)O)[C@H]2C[C@@H]1[C@H]1C(=O)CCC(=O)[C@H]13
-- reply 62

-- ask Answer with the recorded CC50 of COC(=O)[C@]1(C)CCC[C@]2(C)[C@H]3CC4C(C(C)C)=C[C@]3(CC[C@H]21)[C@@H]1NC(=O)CC[C@H](O)[C@H]41 only.
-- reply 58
